ASSAY_REMARKS: Inhibition of chymotrypsin-like activity of 26S proteasome
READOUT_KIND: pIC50
Hey, just a heads up that pIC50 is the negative log base 10 of the concentration in molar.

Take a look at these entries with their results.
MOLECULE	pIC50
CC(C)C[C@@H](C=O)NC(=O)[C@H](CCCN/C(N)=N/[N+](=O)[O-])NC(=O)C(CCCCCCCCC#N)C1CCCC1 (some centres undefined)	8.22
CC(C)C[C@H](NC(=O)[C@H](CCCN/C(N)=N/[N+](=O)[O-])NC(=O)C(CCCCCCCCC#N)C1CCCC1)C(=O)C(=O)NCCNS(=O)(=O)c1ccccc1 (some centres undefined)	9.00
CC(C)C[C@@H](C=O)NC(=O)[C@H](CCCN/C(N)=N/[N+](=O)[O-])NC(=O)C(CCCCCCCCN1C(=O)c2ccccc2C1=O)C1CCCC1 (some centres undefined)	8.70

Could you now consider this next molecule?
The recorded pIC50 for CC(C)C[C@H](NC(=O)[C@H](CCCN/C(N)=N/[N+](=O)[O-])NC(=O)C(CCCCCCCCC#N)C1CCCC1)B1OC(C)(C)C(C)(C)O1 (some centres undefined) is 8.22
